This collection of values is drawn from patent US20250171438A1.

- targetUnderTest: human PAH with the R408W mutation (Homo sapiens, UniProt P00439, R408W)
- Construct: expressed in transfected cells
- Sequence (P00439 whole entry R408W): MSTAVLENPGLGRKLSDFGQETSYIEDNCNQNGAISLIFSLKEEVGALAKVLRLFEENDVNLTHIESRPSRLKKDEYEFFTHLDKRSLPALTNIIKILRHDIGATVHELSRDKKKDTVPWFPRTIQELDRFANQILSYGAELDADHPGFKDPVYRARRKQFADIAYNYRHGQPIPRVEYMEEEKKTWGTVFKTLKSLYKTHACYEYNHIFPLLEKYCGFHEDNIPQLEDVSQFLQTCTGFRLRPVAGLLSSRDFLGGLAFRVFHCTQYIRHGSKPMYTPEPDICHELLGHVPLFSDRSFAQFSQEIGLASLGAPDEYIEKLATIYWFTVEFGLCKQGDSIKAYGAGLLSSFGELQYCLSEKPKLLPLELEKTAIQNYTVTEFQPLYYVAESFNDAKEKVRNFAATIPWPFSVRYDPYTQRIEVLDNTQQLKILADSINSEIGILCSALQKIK
- assayMethodText: Cell Based Phenylalanine Flux Assay
- testParameters: A375 cells expressing human R408W PAH; 24 hrs compound incubation; 13C-Tyrosine by LC-MS; average where tested multiple times; read-out: AC50
assayMetric: AC50

O=C(c1cnn2ccc(Cl)cc12)N1CCc2[nH]cnc2[C@H]1c1nc2c(F)cccc2s1 < 500 nM

What does the data say about its AC50? Entry: `O=C(c1cnc(-c2ccccc2)o1)N1CCc2[nH]cnc2[C@H]1c1nc2ccccc2s1`
< 500 nM

Continue with `CC1(C)CC=C(c2ncc(C(=O)N3CCc4[nH]cnc4[C@@H]3c3nc4ccccc4s3)s2)CC1`
1000 to 5000 nM

Consider next the compound `O=C(c1cnn2cc(C3CC3)ccc12)N1CCc2[nH]cnc2[C@H]1c1nc2ccccc2s1` in the same way.
500 to 1000 nM
